Below is a list of entries, each paired with its recorded pD2 value.
target: T1, human C5L2 (human, UniProt Q9P296 1-337); assay: competition with 50 pM 125I-C5a on C5L2-transfected RBL cells, 4 C
T1 construct: Expressed on stably transfected RBL-2H3 cells, on transiently or stably transfected HEK 293 cells, and endogenously on HSF cells; also called C5L2 receptor
T1 sequence (Q9P296 whole entry): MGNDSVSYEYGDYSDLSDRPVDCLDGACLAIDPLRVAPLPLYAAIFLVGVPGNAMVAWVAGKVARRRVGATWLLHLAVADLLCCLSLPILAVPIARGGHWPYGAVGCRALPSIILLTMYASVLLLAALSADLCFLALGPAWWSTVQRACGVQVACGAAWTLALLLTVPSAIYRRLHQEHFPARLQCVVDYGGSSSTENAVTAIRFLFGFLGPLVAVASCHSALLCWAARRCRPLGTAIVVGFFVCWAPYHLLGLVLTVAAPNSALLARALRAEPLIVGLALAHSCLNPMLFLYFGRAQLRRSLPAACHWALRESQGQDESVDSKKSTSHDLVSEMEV

Binder	Recorded result
recombinant C4a des-Arg^77 (ligand, UniProt P0C0L4 680-755, looked up, domain: C4a des-Arg^77; Expressed and purified under non-denaturing conditions; also called C4adR^77) NVNFQKAINEKLGQYASPTAKRCCQDGVTRLPMMRSCEQRAARVQQPDCREPFLSCCQFAESLRKKSRDKGQAGLQ	4.72 -log IC50
recombinant C4a (ligand, UniProt P0C0L4 680-756, looked up, domain: C4a; Expressed and purified under non-denaturing conditions) NVNFQKAINEKLGQYASPTAKRCCQDGVTRLPMMRSCEQRAARVQQPDCREPFLSCCQFAESLRKKSRDKGQAGLQR	5.42 -log IC50
recombinant His6-tagged C5a des-Arg^74 (ligand, UniProt P01031 678-750, looked up, domain: C5a des-Arg^74; also called C5adR^74; not shown: His6 tag) TLQKKIEEIAAKYKHSVVKKCCYDGACVNNDETCEQRAARISLGPRCIKAFTECCVVASQLRANISHKDMQLG	7.43 -log IC50

Attention now shifts to the item below.
Enquiry: Fill in the blank: the reported pD2 of recombinant His6-tagged C5a (ligand, UniProt P01031 678-751, looked up, domain: C5a; Expressed and purified under denaturing conditions; not shown: His6 tag) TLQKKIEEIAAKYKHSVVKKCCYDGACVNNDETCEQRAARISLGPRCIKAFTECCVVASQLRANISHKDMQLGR is ____.
Return: 8.09 -log IC50
